Recorded values, source patent US20250235434A1.

The molecules listed here are annotated with their MIC.
system: M. tuberculosis H37Rv (ATCC 27294); test: microbe, parasite or virus in culture; assay type: cell-based; conditions: Mycobacterium tuberculosis, 120 h
Numbers only; they are read as ng/mL.

Form field MIC, entry CO[C@H]1/C=C/O[C@@]2(C)Oc3c(C)c(O)c4c(c3C2=O)C2=NC3(CCN(CC(C)C)CC3)NC2=C(NC(=O)/C(C)=C\C=C\[C@H](C)[C@H](O)[C@@H](C)[C@@H](O)[C@@H](C)[C@H](OC(C)=O)[C@@H]1C)C4=O : 0.3

So for CO[C@H]1/C=C/O[C@@]2(C)Oc3c(C)c(O)c4c(c3C2=O)C2=NC3(CCN(CC(C)C)CC3)NC2=C(NC(=O)/C(C)=C\C=C\[C@H](C)[C@H](O)[C@@H](C)[C@@H](O)[C@@H](C)[C@H](OC(=O)CN2CCC(n3c(=O)[nH]c5cc(Cl)ccc53)CC2)[C@@H]1C)C4=O , the logged MIC turned out to be 3

CO[C@H]1/C=C/O[C@@]2(C)Oc3c(C)c(O)c4c(c3C2=O)C2=NC3(CCN(CC(C)C)CC3)NC2=C(NC(=O)/C(C)=C\C=C\[C@H](C)[C@H](O)[C@@H](C)[C@@H](O)[C@@H](C)[C@H](OC(=O)CN2CCC3C(CCCN3Cc3ccccc3)C2)[C@@H]1C)C4=O (stereo partly shown) yielded MIC of 3

Record CO[C@H]1/C=C/O[C@@]2(C)Oc3c(C)c(O)c4c(c3C2=O)C2=NC3(CCN(CC(C)C)CC3)NC2=C(NC(=O)/C(C)=C\C=C\[C@H](C)[C@H](O)[C@@H](C)[C@@H](O)[C@@H](C)[C@H](OC(=O)CN2CCCN(c3ccc(F)cc3)CC2)[C@@H]1C)C4=O , field MIC: 8
